Exercise: state measured protein stability index for each of the variants provided.
B1: FAM50A (parent)
chain: KALEILRKDFSELRSAGVEQLMYI

- Variants of: B1
- experiment summary: protein stability index of a GFP-peptide fusion (GPS, HEK-293T) (PSI 1-6); higher = more stable;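 also: lentivirally expressed fusions sorted by FACS into six bins by GFP to DsRed ratio, PSI derived from sequencing read proportions per bin multiplied by bin number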
- cond: c terminus: a fixed tail appended
Lab note: record the figure alone, no unit after it.

protein stability index in this record for KADEILRKDFSELRSAGVEQLMYI [L3D] : 1.73

protein stability index in this record for KANEILRKDFSELRSAGVEQLMYI [L3N] : 1.5

protein stability index in this record for KALEILRKDFSELRSAGVEQLWYI [M22W] : 2.3

protein stability index in this record for KALEITRKDFSELRSAGVEQLMYI [L6T] : 1.85

protein stability index in this record for KALEILRKDFSELESAGVEQLMYI [R14E] : 1.68

protein stability index in this record for KALEILRKDFSEKRSAGVEQLMYI [L13K] : 1.53

protein stability index in this record for KALEILRKDFDELRSAGVEQLMYI [S11D] : 1.6

protein stability index in this record for KALEILRKDFSELRSAGVEQLMYS [I24S] : 1.54

protein stability index in this record for KALEILRKDFSELRSVGVEQLMYI [A16V] : 2.07

protein stability index in this record for KALEILRKDFSNLRSAGVEQLMYI [E12N] : 3.69

protein stability index in this record for KALEPLRKDFSELRSAGVEQLMYI [I5P] : 1.78

protein stability index in this record for KALEILRKDFSELRHAGVEQLMYI [S15H] : 4.69

protein stability index in this record for KALEILRKDFSELNSAGVEQLMYI [R14N] : 1.95

protein stability index in this record for KALEILRKDFSELCSAGVEQLMYI [R14C] : 4.11

protein stability index in this record for KALEILRKDFSELRSAGVEQGMYI [L21G] : 3

protein stability index in this record for KALEILRKDFSLLRSAGVEQLMYI [E12L] : 2.09

protein stability index in this record for KALEILRKDFSELRSAGKEQLMYI [V18K] : 2.61

protein stability index in this record for KALEILRKDFSELRSAGGEQLMYI [V18G] : 2.52

protein stability index in this record for KALEILRKDFSELRSAGVEQDMYI [L21D] : 2.23

protein stability index in this record for KALEILRKDFSELRSAGVEQLIYI [M22I] : 1.97

protein stability index in this record for KALEILRKDFSELRSAGVEQLMYN [I24N] : 1.21

protein stability index in this record for KALEILRKDFSVLRSAGVEQLMYI [E12V] : 2.75
